# experimental-setup: bovine
value-type: Papp at 4 h, 2 µM (×10⁻⁶ cm/s)
Report only the number, with the unit ×10⁻⁶ cm/s understood.

IN: Respond only with Papp at 4 h, 2 µM recorded for OC[C@@H](O)[C@@H](O)[C@H](O)[C@H](O)CO
OUT: 0.91

====

Recorded Papp A→B at 4 h, 100 µM values for a group of compounds are listed next.
# System: organic cation transporters (TEA); organic anion transporters (ES)
# experimental-setup: bovine
Counter-ions that a name gives are not always drawn.

INSERT INTO assay_data (compound, readout_value) VALUES
  ('C[C@]12CC[C@@H]3c4ccc(OS(=O)(=O)O)cc4CC[C@H]3[C@@H]1CCC2=O [ES, estrone sulfate]', '0.66 ×10⁻⁶ cm/s');

Shift focus to the following entry.
IN: Respond only with Papp A→B at 4 h, 100 µM recorded for CC[N+](CC)(CC)CC [TEA, Tetraethylammonium bromide]
OUT: 2 ×10⁻⁶ cm/s

====

# method-description: in vitro
Counter-ions that a name gives are not always drawn.
Recorded Papp at 4 h values for a group of compounds are listed next.
Report only the number, with the unit ×10⁻⁶ cm/s understood.

INSERT INTO assay_data (compound, readout_value) VALUES
  ('CC[N+](CC)(CC)CC [TEA, Tetraethylammonium bromide]', 161);

Shift focus to the following entry.
IN: Respond only with Papp at 4 h recorded for C[C@]12CC[C@@H]3c4ccc(OS(=O)(=O)O)cc4CC[C@H]3[C@@H]1CCC2=O [ES, estrone sulfate]
OUT: 122

====

# Tested on: organic cation transporters (TEA); organic anion transporters (ES)
# experimental-setup: bovine
Where a name gives a salt, the structure may show the parent alone.
Recorded Papp B→A at 4 h, 100 µM values for a group of molecules are listed next.
Lab note: write values as number then unit, every time.

INSERT INTO results (molecule, readout_value) VALUES
  ('C[C@]12CC[C@@H]3c4ccc(OS(=O)(=O)O)cc4CC[C@H]3[C@@H]1CCC2=O [ES, estrone sulfate]', '2.2 ×10⁻⁶ cm/s');

IN: Respond only with Papp B→A at 4 h, 100 µM recorded for CC[N+](CC)(CC)CC [TEA, Tetraethylammonium bromide]
OUT: 5.1 ×10⁻⁶ cm/s
